- Target under test: Gonadotropin-releasing hormone receptor (Homo sapiens)
- Sequence (P30968 whole entry): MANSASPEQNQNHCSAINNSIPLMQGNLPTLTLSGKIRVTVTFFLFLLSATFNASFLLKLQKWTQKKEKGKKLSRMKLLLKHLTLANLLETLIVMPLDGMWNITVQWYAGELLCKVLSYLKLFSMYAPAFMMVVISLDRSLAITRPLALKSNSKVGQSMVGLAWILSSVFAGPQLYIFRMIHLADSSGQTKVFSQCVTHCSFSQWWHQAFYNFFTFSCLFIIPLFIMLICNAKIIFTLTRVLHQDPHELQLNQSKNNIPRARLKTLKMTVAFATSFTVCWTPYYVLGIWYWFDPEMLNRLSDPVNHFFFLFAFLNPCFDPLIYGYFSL
- Assay method text: Displacement of [125I]D-Trp6-LHRH from human GnRH receptor expressed in CHO-K1 cell membranes incubated for 1 hr by competitive binding assay
pIC50: −log10 of the molar value.
Provide the recorded pIC50 for the entries that follow.

>  <Compound>
Cc1c(N2CCN(Cc3ccc(C(F)(F)F)o3)CC2)c(=O)n(C[C@H](NCCCC(=O)O)c2ccccc2)c(=O)n1Cc1c(F)cccc1C(F)(F)F

>  <Measurement kind>
pIC50

>  <Experimental value>
9.34 to 9.36

$$$$
>  <Compound>
Cc1c(N2CCN(Cc3ccncc3)CC2)c(=O)n(C[C@H](N)c2ccccc2)c(=O)n1Cc1c(F)cccc1F

>  <Measurement kind>
pIC50

>  <Experimental value>
< 7.00

$$$$
>  <Compound>
Cc1c(N2CCN(Cc3ccccc3OC(F)(F)F)CC2)c(=O)n(C[C@H](N)c2ccccc2)c(=O)n1Cc1c(F)cccc1F

>  <Measurement kind>
pIC50

>  <Experimental value>
< 7.00

$$$$

Can you give me pIC50 for all of these, one by one?
1. Cc1c(N2CCNCC2)c(=O)n(C[C@H](N)c2ccccc2)c(=O)n1Cc1c(F)cccc1F
2. Cc1c(N2CCCC(c3ccccc3)C2)c(=O)n(C[C@H](N)c2ccccc2)c(=O)n1Cc1c(F)cccc1F (stereo partly drawn)
3. Cc1c(N2CCN(Cc3cccc4cccnc34)CC2)c(=O)n(C[C@H](N)c2ccccc2)c(=O)n1Cc1c(F)cccc1C(F)(F)F
4. Cc1c(N2CCN(c3ccccn3)CC2)c(=O)n(C[C@H](N)c2ccccc2)c(=O)n1Cc1c(F)cccc1F

< 6.00
< 7.00
< 7.00
< 6.00

// `Cc1c(N2CCN(CCc3ccccc3)CC2)c(=O)n(C[C@H](N)c2ccccc2)c(=O)n1Cc1c(F)cccc1F` : pIC50 value = < 7.00
